# system tested: Tyrosine-protein kinase ABL2 (Homo sapiens); also: in the data inactive means no Kd found up to 30 µM
# Sequence (P42684 whole entry): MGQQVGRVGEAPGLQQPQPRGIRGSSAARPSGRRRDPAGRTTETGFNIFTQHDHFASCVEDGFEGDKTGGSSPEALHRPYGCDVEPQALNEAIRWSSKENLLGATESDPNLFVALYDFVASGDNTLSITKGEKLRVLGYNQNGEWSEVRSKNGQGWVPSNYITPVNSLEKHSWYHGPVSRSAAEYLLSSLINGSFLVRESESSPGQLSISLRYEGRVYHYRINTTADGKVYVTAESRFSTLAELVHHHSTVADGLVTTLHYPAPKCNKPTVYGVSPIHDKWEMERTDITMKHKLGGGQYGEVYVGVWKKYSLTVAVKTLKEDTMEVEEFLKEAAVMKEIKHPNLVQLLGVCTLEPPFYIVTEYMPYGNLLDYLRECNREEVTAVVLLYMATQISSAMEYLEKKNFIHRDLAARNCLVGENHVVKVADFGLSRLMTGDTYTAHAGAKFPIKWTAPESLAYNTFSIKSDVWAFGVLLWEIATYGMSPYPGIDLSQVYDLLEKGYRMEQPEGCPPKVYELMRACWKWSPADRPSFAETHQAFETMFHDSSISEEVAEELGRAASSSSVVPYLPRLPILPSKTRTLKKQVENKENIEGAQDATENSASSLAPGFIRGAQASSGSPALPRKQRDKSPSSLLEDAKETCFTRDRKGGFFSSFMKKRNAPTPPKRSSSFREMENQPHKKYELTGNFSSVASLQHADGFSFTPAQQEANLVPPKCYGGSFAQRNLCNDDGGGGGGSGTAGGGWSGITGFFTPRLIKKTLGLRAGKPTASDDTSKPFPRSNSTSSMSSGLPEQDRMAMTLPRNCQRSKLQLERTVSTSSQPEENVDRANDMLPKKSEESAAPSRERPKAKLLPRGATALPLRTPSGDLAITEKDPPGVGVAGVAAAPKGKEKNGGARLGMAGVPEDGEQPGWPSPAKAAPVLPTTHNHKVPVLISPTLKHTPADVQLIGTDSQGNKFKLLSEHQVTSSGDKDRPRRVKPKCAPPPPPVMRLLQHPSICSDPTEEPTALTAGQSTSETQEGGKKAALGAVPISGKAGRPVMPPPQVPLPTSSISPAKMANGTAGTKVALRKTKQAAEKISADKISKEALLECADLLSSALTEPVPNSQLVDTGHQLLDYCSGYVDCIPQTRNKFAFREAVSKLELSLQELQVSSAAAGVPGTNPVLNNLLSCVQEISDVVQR
Activity calls are given as the source filed them.
Hi! Could you answer with just one of these? true = active, false = inactive

- C[C@H]1CNCCCN1S(=O)(=O)c1cccc2cncc(F)c12: false

input: Recorded test outcome, item Cc1nc2cc(-c3nn(C(C)C)c4ncnc(N)c34)ccc2o1
output: false

input: Recorded test outcome, item Cc1cnc(NC(=O)Nc2cc(Br)c(C)cc2OC[C@@H]2CNCCO2)cn1
output: false

input: Recorded test outcome, item Cc1nc2cc(-n3ncc(C(=O)c4cc5ccccc5[nH]4)c3N)ccc2[nH]1
output: false

input: Recorded test outcome, item COc1cc2ncnc(Oc3cccc(NC(=O)Nc4cc(C(C)(C)C(F)(F)F)on4)c3)c2cc1OC
output: true

input: Recorded test outcome, item Cn1cnc2c(F)c(Nc3ccc(Br)cc3F)c(C(=O)NOCCO)cc21
output: false

input: Recorded test outcome, item NC(=O)c1c(OCc2c(F)cc(Br)cc2F)nsc1NC(=O)NCCCCN1CCCC1
output: false

input: Recorded test outcome, item Cn1cc(-c2cnn3c(N)c(Br)c([C@@H]4CCCNC4)nc23)cn1
output: false

input: Recorded test outcome, item CO[C@H]1C[C@@H]2CC[C@@H](C)[C@@](O)(O2)C(=O)C(=O)N2CCCC[C@H]2C(=O)O[C@H]([C@H](C)C[C@@H]2CC[C@@H](OP(C)(C)=O)[C@H](OC)C2)CC(=O)[C@H](C)/C=C(\C)[C@@H](O)[C@@H](OC)C(=O)[C@H](C)C[C@H](C)/C=C/C=C/C=C/1C
output: false

Hey, just so you know, these numbers are from ChEMBL document CHEMBL3991601.
